- assay-method-text: AUC in rabbit plasma at 58 mg/kg infused every 12 hrs for 4 days
- Assay type: ADME, organism-based, Oryctolagus cuniculus
- Design: dose 58 mg/kg
- assay-conditions: iv
property-name: AUC (µg·h/mL)
The answer is to be given in µg·h/mL; state only the numeric part.

I'd like to know its AUC. The molecule in question is CC(=O)NC[C@H]1CN(c2ccc(N3CCOCC3)c(F)c2)C(=O)O1 137

---

- assay-method-text: Protein binding in rabbit plasma
- Assay type: ADME, cell-free, Oryctolagus cuniculus
- assay-conditions: read-out: PPB
property-name: fraction unbound

I'd like to know its fraction unbound. The compound in question is CCO/N=C(\C(=O)N[C@@H]1C(=O)N2C(C(=O)[O-])=C(Sc3nc(-c4cc[n+](C)cc4)cs3)CS[C@H]12)c1nsc(NP(=O)(O)O)n1 > 0.8

---

- assay-method-text: Protein binding in human plasma
- Format: ADME, cell-free
- assay-conditions: read-out: PPB
property-name: fraction unbound

I'd like to know its fraction unbound. The molecule in question is CCO/N=C(\C(=O)N[C@@H]1C(=O)N2C(C(=O)[O-])=C(Sc3nc(-c4cc[n+](C)cc4)cs3)CS[C@H]12)c1nsc(NP(=O)(O)O)n1 [CEFTAROLINE FOSAMIL] > 0.8
